Attribution: patent US8791131B2

Molecular target: PI3-Kα (Mus musculus (Mouse), UniProt P42337)
Sequence (P42337 whole entry, the tested form may be a part): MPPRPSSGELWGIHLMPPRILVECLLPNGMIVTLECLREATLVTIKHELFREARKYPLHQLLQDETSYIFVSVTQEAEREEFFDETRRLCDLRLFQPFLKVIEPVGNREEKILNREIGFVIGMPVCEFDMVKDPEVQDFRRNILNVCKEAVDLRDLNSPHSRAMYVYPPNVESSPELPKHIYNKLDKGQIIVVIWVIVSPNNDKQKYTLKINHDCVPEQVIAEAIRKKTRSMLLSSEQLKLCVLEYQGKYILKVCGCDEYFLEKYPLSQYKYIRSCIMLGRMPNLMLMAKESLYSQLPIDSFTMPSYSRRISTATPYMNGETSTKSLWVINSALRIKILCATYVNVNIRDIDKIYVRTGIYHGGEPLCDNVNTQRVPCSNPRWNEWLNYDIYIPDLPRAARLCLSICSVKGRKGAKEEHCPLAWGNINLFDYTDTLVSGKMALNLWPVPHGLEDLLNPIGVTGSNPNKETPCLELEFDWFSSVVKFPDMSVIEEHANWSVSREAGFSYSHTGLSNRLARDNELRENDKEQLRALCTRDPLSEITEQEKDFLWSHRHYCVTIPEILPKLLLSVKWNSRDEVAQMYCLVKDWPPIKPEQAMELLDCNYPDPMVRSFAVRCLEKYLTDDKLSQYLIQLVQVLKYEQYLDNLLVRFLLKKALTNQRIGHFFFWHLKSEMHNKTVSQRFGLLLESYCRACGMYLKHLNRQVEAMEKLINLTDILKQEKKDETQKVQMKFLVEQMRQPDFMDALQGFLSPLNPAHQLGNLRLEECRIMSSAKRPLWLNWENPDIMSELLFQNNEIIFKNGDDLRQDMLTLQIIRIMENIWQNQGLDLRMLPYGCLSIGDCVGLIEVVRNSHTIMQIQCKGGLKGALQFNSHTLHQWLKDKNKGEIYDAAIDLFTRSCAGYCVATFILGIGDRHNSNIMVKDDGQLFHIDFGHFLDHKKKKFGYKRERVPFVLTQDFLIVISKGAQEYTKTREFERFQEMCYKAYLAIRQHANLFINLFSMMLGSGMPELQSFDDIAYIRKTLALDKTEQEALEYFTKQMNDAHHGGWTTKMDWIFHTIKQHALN
Sequence (P26450 whole entry partner, the tested form may be a part): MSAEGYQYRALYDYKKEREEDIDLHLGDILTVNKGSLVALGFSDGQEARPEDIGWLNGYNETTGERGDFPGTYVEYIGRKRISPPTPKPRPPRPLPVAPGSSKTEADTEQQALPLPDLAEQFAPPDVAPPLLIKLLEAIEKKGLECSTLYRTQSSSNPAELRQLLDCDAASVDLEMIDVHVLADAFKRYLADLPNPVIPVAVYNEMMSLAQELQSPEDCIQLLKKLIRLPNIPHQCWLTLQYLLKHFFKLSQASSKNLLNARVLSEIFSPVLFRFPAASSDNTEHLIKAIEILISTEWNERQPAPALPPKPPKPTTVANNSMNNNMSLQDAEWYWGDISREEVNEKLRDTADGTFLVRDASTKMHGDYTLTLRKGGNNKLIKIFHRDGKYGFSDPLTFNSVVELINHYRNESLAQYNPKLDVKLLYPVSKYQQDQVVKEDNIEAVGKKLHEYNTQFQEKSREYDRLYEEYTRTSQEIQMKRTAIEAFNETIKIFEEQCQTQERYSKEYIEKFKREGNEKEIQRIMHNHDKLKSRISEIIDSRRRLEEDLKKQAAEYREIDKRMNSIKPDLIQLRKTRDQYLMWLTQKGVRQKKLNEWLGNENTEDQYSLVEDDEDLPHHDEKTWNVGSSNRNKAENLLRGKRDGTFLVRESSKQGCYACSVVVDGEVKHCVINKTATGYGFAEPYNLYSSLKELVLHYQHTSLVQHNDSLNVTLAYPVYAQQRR
Experiment: PI3-Kα biochemical assay (in vitro kinase assay, fluorescence polarization);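 note: Insect-cell-expressed mouse p110/p85 complex converting PI(4,5)P2, product PI(3,4,5)P3 detected by displacing TAMRA-tagged PI(3,4,5)P3 from Grip1 PH domain, lower polarization means more product, room temperature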
Conditions: Ki calculated from IC50, [ATP]=30 uM, Km=25 uM
Measured quantity: PI3Ka Ki (nM)
Lab book: enter the figure in nM, no units written.

Some solved entries appear below for comparison.
- Compound: "CNC(=O)N1CCC(n2c(=O)n(C)c3cnc4ccc(-c5cnc6ccccc6c5)nc4c32)CC1"
  Reading unit: "nM"
  Number: 1.96
- Compound: "COc1ccc(-c2ccc3ncc4c(c3n2)n([C@@H](C)CO)c(=O)n4C)cn1"
  Reading unit: "nM"
  Number: 4.08
- Compound: "COc1ncc(-c2ccc3ncc4[nH]c(=O)n(-c5ccc(C(C)(C)C#N)cc5)c4c3n2)cc1F"
  Reading unit: "nM"
  Number: 3.81

Attention now turns to another entry.
Value of measured PI3Ka Ki for the entry `COc1cccc(-c2ccc3ncc4c(c3n2)n(C2CCN(C(=O)CO)CC2)c(=O)n4C)c1` : 2.22
